# experimental target: Thioredoxin reductase (Homo sapiens, UniProt Q16881+Q9NNW7+Q86VQ6)
# assay notes: Inhibitory concentration against wild type human thioredoxin reductase (5 nM) pre-incubated for 10 min at 25 degree C in buffer in the presence of 200 uM NADPH
# Assay type: protein assay
test readout: IC50
Answer with the value and then the unit.

// recorded IC50 for "O=C(Cc1ccc2ccccc2c1)NNC(=O)c1ccc([N+](=O)[O-])o1" : 18 µM
